Measured values drawn from PubChem BioAssay (NCI) for this set.

System: M19-MEL melanoma
Assay: NCI tumour cell line growth inhibition, 48 h

{"molecule": "CCNC(=O)/C=C/CCC#Cc1ccc(-c2ccc(-c3cccs3)s2)s1", "TGI": "> 100 µM"}
{"molecule": "CS(=O)(=O)N(CCC#N)c1ccc(/C=N/NC(=O)CC(=O)Nc2cccc(Cl)c2)cc1", "TGI": "> 100 µM"}
{"molecule": "CCOCC(=O)N[C@H]1CCc2cc(OC)c(OC)c(OC)c2-c2ccc(SC)c(=O)cc21", "TGI": "> 100 µM"}
{"molecule": "Cn1ccnc1C(c1nccn1C)C(C)(C)[N+](=O)[O-]", "TGI": "> 100 µM"}
{"molecule": "O=C1O[C@H](C(Cl)(Cl)Cl)N2CCCC12 (stereo partly specified)", "TGI": "> 100 µM"}
{"molecule": "CN(C)c1ccc(/C=C/C(=O)C(C)(C)C)cc1Br", "TGI": "50.9 µM"}
{"molecule": "Cc1cc2c(cc1C)[n+](=O)c(C(=O)/C=C/c1ccc(Cl)cc1)c(C)n2[O-]", "TGI": "> 100 µM"}
{"molecule": "COc1cc(N=Nc2ccccc2)cc(/C=N\\[N-]C(N)=S)c1[O-].COc1cc(N=Nc2ccccc2)cc(/C=N\\[N-]C(N)=S)c1[O-].[Fe+4]", "TGI": "75.9 µM"}
{"molecule": "Cn1cc(NC(=O)c2cc(NC(=O)Nc3cc(C(=O)Nc4cc(C(=O)NCCC(=N)N)n(C)c4)n(C)c3)cn2C)cc1C(=O)NCCC(=N)N", "TGI": "83.1 µM"}
{"molecule": "CC1CCC2(NC1)OC1CC3[C@@H]4CC=C5C=CCC[C@]5(C)C4CC[C@]3(C)C1C2C (stereo partly specified)", "TGI": "> 100 µM"}
{"molecule": "COc1cccc2c1C1(O)C2CCCC12OCCCO2 (stereo unspecified)", "TGI": "> 100 µM"}
{"molecule": "CCN(CC)c1ccc(N=C2C=CC(=O)c3ncccc32)c(C)c1", "TGI": "22.6 µM"}
{"molecule": "COC(=O)c1nc(-c2ccc3c(n2)C(=O)C(N)=C(OC)C3=O)c(N)c(-c2ccc(OC)c(OC)c2O)c1C", "TGI": "1.26 µM"}
{"molecule": "CCNc1c(C(=O)N(CC)CC)c(=O)[nH]c2ncccc12", "TGI": "> 100 µM"}
{"molecule": "Cc1ccc(C(=O)O/N=C2/CCCCC2CN(C)C)cc1 (stereo unspecified)", "TGI": "> 100 µM"}
{"molecule": "NC1CCCCC1N.O=C([O-])P(=O)([O-])[O-].[Na+].[Pt+4] (stereo unspecified)", "TGI": "> 100 µM"}

----------
System: NCI-H226 lung
Test: NCI tumour cell line growth inhibition, 48 h

{"item_smiles": "COC(=O)c1ccccc1C#CCCCOS(C)(=O)=O", "censoring_operator": ">", "TGI (µM)": 10}
{"item_smiles": "O=c1[nH]c(-c2ccccc2)nc2ccc(Cl)cc12", "censoring_operator": ">", "TGI (µM)": 100}
{"item_smiles": "c1cc(C[S+]2CCCC2)ccc1C[S+]1CCCC1", "censoring_operator": ">", "TGI (µM)": 100}
{"item_smiles": "COc1ccc(/C=C(\\C(=C/c2ccc(OC)cc2)[N+](=O)[O-])[N+](=O)[O-])cc1", "censoring_operator": "=", "TGI (µM)": 33}
{"item_smiles": "Cc1ccccc1S(=O)(=O)N1[C@H](c2ccc(Cl)cc2)C(C(=O)N[C@@H](Cc2ccccc2)C(N)=O)=C[C@@H]1C(C)(C)C", "censoring_operator": "=", "TGI (µM)": 16.1}
{"item_smiles": "C=CC(C)(C)N[C@@H](C(=O)N1CCC[C@H]1c1nc(-c2nc(C(=O)OCC=C(C)C)c(C)o2)c(C)o1)C(C)C", "censoring_operator": "=", "TGI (µM)": 35.6}
